assay.system: human GR (Homo sapiens)
Sequence (P04150 1-777): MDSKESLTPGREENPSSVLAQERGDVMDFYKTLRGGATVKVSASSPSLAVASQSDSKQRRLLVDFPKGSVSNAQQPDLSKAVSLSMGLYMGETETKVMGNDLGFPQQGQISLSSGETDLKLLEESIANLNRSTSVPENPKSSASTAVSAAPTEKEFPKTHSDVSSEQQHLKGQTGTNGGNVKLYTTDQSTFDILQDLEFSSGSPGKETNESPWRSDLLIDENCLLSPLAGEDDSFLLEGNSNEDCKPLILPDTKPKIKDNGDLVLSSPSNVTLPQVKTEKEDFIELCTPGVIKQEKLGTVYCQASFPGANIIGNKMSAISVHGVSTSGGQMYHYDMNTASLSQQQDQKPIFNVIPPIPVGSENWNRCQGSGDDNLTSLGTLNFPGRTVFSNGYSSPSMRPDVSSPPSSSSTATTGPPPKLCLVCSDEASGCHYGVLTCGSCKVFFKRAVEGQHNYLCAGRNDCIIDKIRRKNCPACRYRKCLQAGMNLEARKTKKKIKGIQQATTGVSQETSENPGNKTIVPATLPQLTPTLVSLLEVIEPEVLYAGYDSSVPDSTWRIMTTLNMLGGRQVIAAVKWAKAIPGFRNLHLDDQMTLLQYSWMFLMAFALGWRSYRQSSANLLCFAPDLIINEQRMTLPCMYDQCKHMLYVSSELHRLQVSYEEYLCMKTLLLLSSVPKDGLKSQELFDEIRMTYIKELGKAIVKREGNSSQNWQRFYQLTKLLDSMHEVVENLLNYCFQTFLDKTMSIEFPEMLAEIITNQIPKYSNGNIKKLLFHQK
measurement.protocol: Transrepression Assay (GITAR), TNFα-β-lactamase reporter in U937 cells
Type: cell-based
Design: U937 cells contain an endogenous glucocorticoid receptor (GR); endogenous in cells; host or cells: U937 cells stably transfected with the TNF-alpha promoter/beta-lactamase reporter
measurement.context: U937 cells; inflection point; read-out: Transrepression U937 Cells GITAR IP
Records here are stratified by EC50; strata: low bin: < 200 nM; mid bin: ≥ 200 nM and < 500 nM; high bin: ≥ 500 nM

Sample answers from the record:
# compound, assay.system, qualitative.label
data = [
    ("C[C@]12Cc3cnn(-c4ccc(F)cc4)c3C=C1CC[C@@H]2CN(CC(O)C(F)(F)F)S(=O)(=O)Cc1cccnc1 (some centres unmarked) [Example 149]", "human GR (Homo sapiens)", "mid bin"),
    ("C[C@]12Cc3cnn(-c4ccc(F)cc4)c3C=C1CC[C@@H]2CN(CC#N)S(=O)(=O)c1ccc(Oc2cccc(Cl)c2C#N)cc1 [Example 38]", "human GR (Homo sapiens)", "high bin"),
    ("CCCCCc1ccc(S(=O)(=O)N(CC2CC2)C[C@H]2CCC3=Cc4c(cnn4-c4ccc(F)cc4)C[C@@]32C)cc1 [Example 9]", "human GR (Homo sapiens)", "high bin"),
    ("C[C@H](O)CN(C[C@H]1CCC2=Cc3c(cnn3-c3ccc(F)cc3)C[C@@]21C)S(=O)(=O)Cc1ccccc1C(=O)O [Example 183]", "human GR (Homo sapiens)", "high bin"),
    ("C[C@]12Cc3cnn(-c4ccc(F)cc4)c3C=C1CC[C@@H]2CN(CC(O)C(F)(F)F)S(=O)(=O)Cc1ccccc1C(N)=O (some centres unmarked) [Example 167]", "human GR (Homo sapiens)", "low bin"),
    ("C[C@]12Cc3cnn(-c4ccc(F)cc4)c3C=C1CC[C@@H]2CN(CC1CC1)S(=O)(=O)c1ccccc1C(F)(F)F [Example 4]", "human GR (Homo sapiens)", "mid bin"),
    ("COC(=O)c1ccccc1CS(=O)(=O)N(C[C@H]1CCC2=Cc3c(cnn3-c3ccc(F)cc3)C[C@@]21C)C[C@H](C)O [Example 181]", "human GR (Homo sapiens)", "mid bin"),
    ("COCCN(C[C@H]1CCC2=Cc3c(cnn3-c3ccc(F)cc3)C[C@@]21C)S(=O)(=O)c1cn(C)nc1C(F)(F)F [Example 172]", "human GR (Homo sapiens)", "high bin"),
]

**Query** Which EC50 category applies to Cn1cc(S(=O)(=O)N(CC(O)C(F)F)C[C@H]2CCC3=Cc4c(cnn4-c4ccc(F)cc4)C[C@@]32C)c(C(F)(F)F)n1 (some centres unmarked) [Example 156] here?
**Result** mid bin

**Query** Which EC50 category applies to C[C@]12Cc3cnn(-c4ccc(F)cc4)c3C=C1CC[C@@H]2CN(CC(OS(=O)(=O)CC(F)(F)F)C(F)F)S(=O)(=O)CC(F)(F)F (some centres unmarked) [Example 134] here?
**Result** mid bin

**Query** Which EC50 category applies to C[C@]12Cc3cnn(-c4ccc(F)cc4)c3C=C1CC[C@@H]2CN(CCc1ccccc1F)S(=O)(=O)c1ccccc1C(F)(F)F [Example 99] here?
**Result** low bin

**Query** Which EC50 category applies to C[C@]12Cc3cnn(-c4ccc(F)cc4)c3C=C1CC[C@@H]2CN(CCc1ccccc1F)S(=O)(=O)Cc1ccc(Cl)c(Cl)c1 [Example 111] here?
**Result** mid bin

---

assay.system: glucocorticoid receptor (Homo sapiens)
Construct: endogenous in cells
measurement.protocol: Ligand binding assay (GR BIND)
# pKi per entry
Scale for pKi: -log10 of concentration given in mol/L; no unit attached.

# compound, assay.system, pKi
data = [
    ("C[C@]12Cc3cnn(-c4ccc(F)cc4)c3C=C1CC[C@@H]2CN(CCO)S(=O)(=O)c1ccc(Oc2cccc(Cl)c2C#N)cc1 [Example 69]", "glucocorticoid receptor (Homo sapiens)", 8.06),
    ("Cc1noc(C)c1S(=O)(=O)N(C[C@H]1CCC2=Cc3c(cnn3-c3ccc(F)cc3)C[C@@]21C)C[C@@H](C)O [Example 168]", "glucocorticoid receptor (Homo sapiens)", 8.82),
    ("CN1CCOc2cc(S(=O)(=O)N(CC#N)C[C@H]3CCC4=Cc5c(cnn5-c5ccc(F)cc5)C[C@@]43C)ccc21 [Example 39]", "glucocorticoid receptor (Homo sapiens)", 8.09),
    ("C[C@]12Cc3cnn(-c4ccc(F)cc4)c3C=C1CC[C@@H]2CN(CCc1ccccc1F)S(=O)(=O)Cc1ccccc1C(N)=O [Example 190]", "glucocorticoid receptor (Homo sapiens)", 8.82),
    ("COC(=O)c1ccccc1CS(=O)(=O)N(CC(O)C(F)(F)F)C[C@H]1CCC2=Cc3c(cnn3-c3ccc(F)cc3)C[C@@]21C (stereo partly drawn) [Example 162]", "glucocorticoid receptor (Homo sapiens)", 9.30),
]

--- query ---
**Query** What pKi value was documented for this compound, C[C@]12Cc3cnn(-c4ccc(F)cc4)c3C=C1CC[C@@H]2CN(CC(O)C(F)F)S(=O)(=O)Cc1cccnc1 (stereo partly drawn) [Example 154] ?
**Result** 8.89

---

assay.system: human GR (Homo sapiens)
measurement.protocol: Transrepression Assay (GITAR), TNFα-β-lactamase reporter in U937 cells
Assay type: cell-based
Set-up: U937 cells contain an endogenous glucocorticoid receptor (GR); endogenous in cells; host or cells: U937 cells stably transfected with the TNF-alpha promoter/beta-lactamase reporter
measurement.context: U937 cells; inflection point; read-out: Transrepression U937 Cells GITAR IP
# EC50 per entry
Write the value in µM as a bare number.

Example results:
# compound, unit.symbol, EC50
data = [
    ("C[C@]12Cc3cnn(-c4ccc(F)cc4)c3C=C1CC[C@@H]2CN(CCO)S(=O)(=O)c1ccccc1-c1ccccc1 [Example 84]", "µM", 0.799),
    ("C[C@]12Cc3cnn(-c4ccc(F)cc4)c3C=C1CC[C@@H]2CN(CCO)S(=O)(=O)c1ccc(Oc2cccc(Cl)c2C#N)cc1 [Example 69]", "µM", 2.54),
]

--- query ---
**Query** What EC50 value was documented for this compound, C[C@]12Cc3cnn(-c4ccc(F)cc4)c3C=C1CC[C@@H]2CN(CCc1ccccn1)S(=O)(=O)Cc1ccccc1C(N)=O [Example 196] ?
**Result** 0.387

---

assay.system: human GR (Homo sapiens)
measurement.protocol: Transrepression Assay (GITAR), TNFα-β-lactamase reporter in U937 cells
Assay type: cell-based
Parameters: U937 cells contain an endogenous glucocorticoid receptor (GR); endogenous in cells; host or cells: U937 cells stably transfected with the TNF-alpha promoter/beta-lactamase reporter
measurement.context: U937 cells; inflection point; read-out: Transrepression U937 Cells GITAR IP
// NB: equality with 400 nM counts as no; only EC50 strictly below is yes

# molecule, qualitative.label
data = [
    ("C[C@]12Cc3cnn(-c4ccc(F)cc4)c3C=C1CC[C@@H]2CN(CC#N)S(=O)(=O)Cc1cccc(C(F)(F)F)c1 [Example 30]", "no"),
]

**Query** For C[C@]12Cc3cnn(-c4ccc(F)cc4)c3C=C1CC[C@@H]2CN(CC1CC1)S(=O)(=O)/C=C/c1ccccc1 [Example 13] , is the recorded EC50 below the cut-off of 400 nM?
**Result** yes

**Query** For COc1cccc(CCN(C[C@H]2CCC3=Cc4c(cnn4-c4ccc(F)cc4)C[C@@]32C)S(=O)(=O)CC(F)(F)F)c1 [Example 126] , is the recorded EC50 below the cut-off of 400 nM?
**Result** yes

**Query** For Cn1cc(S(=O)(=O)N(CCO)C[C@H]2CCC3=Cc4c(cnn4-c4ccc(F)cc4)C[C@@]32C)c(C(F)(F)F)n1 [Example 65] , is the recorded EC50 below the cut-off of 400 nM?
**Result** no
